# Protocol: Evaluated for inhibition of ET-1 induced Calcium channel [Ca+2]i in CHO-K1 cells transfected with the rat ETA-expression plasmid DNA at 10E-6M
# Format: functional
Non-standard residues stand in square brackets, D forms with d. Residues, ends and D or L forms follow the SMILES beside them.
Field: inhibition at 1 µM. Provide a value for each of the compounds that follow.

For each of the compounds below, state inhibition at 1 µM.
1. CC(C)C[C@@H]1NC(=O)[C@@H](C(C)C)NC(=O)[C@@H]2CCCN2C(=O)[C@@H](CC(=O)O)NC(=O)[C@@H](Cc2c[nH]c3ccccc23)NC1=O [BQ-123] (cyclo(L[dW][dD]P[dV]))
2. Cn1c2c(c3ccccc31)C(C)(c1ccc(OCC(=O)O)cc1)c1cc(C(=O)O)sc1C2=O (stereo unspecified)
3. CC1(c2ccc(O)cc2)c2cc(C(=O)O)sc2C(=O)c2c1c1ccccc1n2Cc1ccccc1 (stereo unspecified)
4. Cn1c2c(c3ccccc31)C(C)(c1ccc(OCCCC(=O)O)cc1)c1cc(C(=O)O)sc1C2=O (stereo unspecified)
5. Cn1c2c(c3ccccc31)C(C)(c1cccc(CC(=O)O)c1)c1cc(C(=O)O)sc1C2=O (stereo unspecified)

Reply:
~60%
> 75%
> 75%
> 75%
> 75%

// field: inhibition at 1 µM; key: Cn1c2c(c3ccccc31)C(C)(c1cccc(CCCC(=O)O)c1)c1cc(C(=O)O)sc1C2=O (stereo unspecified) ; value = > 75%

###

# Protocol: Evaluated for inhibition of ET-1 induced Calcium channel [Ca+2]i in CHO-K1 cells transfected with the rat ETA-expression plasmid DNA
# Assay type: functional, cell-based
pIC50: −log10 of the molar value.
Parameter Measured: pIC50

// field: pIC50; key: CC1(c2ccc(O)cc2)c2cc(C(=O)O)sc2C(=O)c2c1c1ccccc1n2Cc1ccccc1 (stereo unspecified) ; value = ~8.00
